- TARGET_OF_ASSAY: RSV postfusion F (postF, F deltaFP) (Respiratory syncytial virus)
- ASSAY_TEXT: BLI, IgG on sensor, 100 nM antigen
MEASURE_NAME: Kd (nM)
Form entry: value (nM) — number only.

{"BINDER": "ADI-41284 (antibody, V domains shown) VH: QVQLVQSGGGLVKPGGSLRLSCAASGFTFSNAWMSWVRQAPGKGLEWVGRIKSEVDGGTADYAANVKGRLTISRDDSKNMMYLQMNSLKTEDTAVYYCTTDPGVGWIFGEVKLFRTDPEYWGQGTLVTVSS VL: QSVLTQPPSVSAAPGQKVTISCSGSSSNIGNHYVSWYQQLPGTSPKLLIYDNNKRPSGIPDRFSGSKSGTSATLGITGLQPGDEADYYCGTWDSSLSAVRVFGGGTKVTVL", "UNITS_OF_MEASURE": "nM", "OBSERVED": 0.547}
{"BINDER": "ADI-41287 (antibody, V domains shown) VH: EVQLVESGGGLVQPGRSLRLSCAASGFTFDDYAMHWVRQAPGKGLEWVSSISWHSADIGYAASVEGRFTISRDNAKNSLFLQMNSLRPEDTALYYCAKEIVSTSWYSGYFQDWGQGTLVTVSS VL: QPVLTQPRSVSGSPGQSVTISCTGTSSDVGDYNYVSWYQQHPGKAPKLMIYDVSKRPSGVPDRFSGSKSGNTASLTISGLQGEDEADYYCCSYAGRHTFVFGTATKVTVL", "UNITS_OF_MEASURE": "nM", "OBSERVED": 0.598}
{"BINDER": "ADI-41313 (antibody, V domains shown) VH: EVQLVESGAEVKKPGASVKVSCKASGYTFNNYDISWVRQAPGQGLEWMGWISTYNGNTNYAQKFQGRATMTTDTSTTTAYMELRSLRSDDSAIYYCARVYCGGDCHNPFFLYFDLWGRGTLVTVSS VL: SYVLTQPLSVSVALGQTARITCGGNNIGSKSVHWYQQKPGQAPLLVIYRDNNRPSGIPERFSGSTSGNTATLTISRAQAGDEADYSCQVWDNSDWVFGGGTKLTVL", "UNITS_OF_MEASURE": "nM", "OBSERVED": 0.342}
{"BINDER": "ADI-41345 (antibody, V domains shown) VH: EVQLVQSGAEVRKPGESLKISCKGSGYNFASYWIAWVRQMPGKGLEWMGIIFPGDSDTRYSPSFQGQVTISVDKSISTAYLQWSSLKASDTAIYYCATSKYTFGYLDWGQGTLVTVSS VL: NFMLTQPHSVSESPGKTVTISCTRSSGSIASNYVQWYQQRPGSAPTTVIYEDNQRPSGVPDRFSGSIDSSSNSASLTISGLKTEDEADYYCQSYDTSNQVFGTGTKVTVL", "UNITS_OF_MEASURE": "nM", "OBSERVED": 0.349}
{"BINDER": "ADI-41275 (antibody, V domains shown) VH: EVQLVESGGGLVKPGGSLRLSCAASGFMFSTYSMNWVRQAPGKGLEWVSFITGSSSDKYYAHSVKGRFTISRDNAKRTLYLQLNSLRAEDTAVYYCARFRGLYCDGDCSSRGNTYYNYYGMDVWGQGTTVTVSS VL: EIVMTQSPLSLSVIPGEPASISCRSSKSLLHSNGYTYLDWYLQKPGQSPQLLIHLGSNRASGVPDRFSGSGSGTDFTLKISRVEAEDVGVFYCMQALQAPPTFGPGTKVEIK", "UNITS_OF_MEASURE": "nM", "OBSERVED": 1.33}

Shift focus to the following entry.
Exercise: GET /values?readout=Kd&item= ADI-41297 (antibody, V domains shown) VH: QVQLVQSGAEVKKPGSSVKVSCKASGGTFSTDAISWVRQAPGQGLEWMGGIIPLFGTANYAQKFQGRVTITADESTSTAYMELNSLRSVDTAVYYCGRTGAFDGEVVVRPHLDLWGQGTLVTVSS VL: QPVLTQPASVSGSPGQSITISCTGTSSDVGGYDYVSWYQHHPGKAPKLMIYEVSNRPSGVSNRFSGSKSGNTASLTISGLQADDEAAYYCSSYTRSNTLLFGGGTKLTVL
Solution: 0.628

Reference source: patent US20260258115A1
